Values were extracted from the kinase profiling compilation of Christmann-Franck et al. (2016).

Recorded measurements of residual activity, one per entry
- target-entity: UniProtKB Q86V86
- method: radiometric filter-binding kinase assay
- experimental-parameters: compound 0.1 µM
result-type: residual activity (%)

molecule=COc1ccc(-n2ncc3cnc(Nc4cc(OC)c(OC)c(OCCCN5CCN(C)CC5)c4)nc32)cc1 result_type="residual activity" quantitative_result=91
molecule=NC(=O)c1cc(-c2ccnc(NC3CCCCC3)c2)nc(N2CCNCC2)c1 result_type="residual activity" quantitative_result=97
molecule="COc1ccc2c(c1)c1c3c(c4c5ccccc5n(C)c4c1n2CC(O)CN(C)C)C(=O)NC3=O (stereo not given)" result_type="residual activity" quantitative_result=2
molecule=O=C(O)c1ccc(-c2c[nH]c3ncc(-c4ccccc4)cc23)cc1C1CCCC1 result_type="residual activity" quantitative_result=90
molecule=Cn1c(=O)c2c(ncn2C)n(C)c1=O result_type="residual activity" quantitative_result=99
molecule=NC(=O)c1cc2c(-c3cccc(-c4ccccc4)c3)cnc(N)c2s1 result_type="residual activity" quantitative_result=101
molecule=c1ccc2c(-c3cnn4cc(-c5ccc(N6CCNCC6)cc5)cnc34)ccnc2c1 result_type="residual activity" quantitative_result=105
molecule=C/C(=C1/C(=O)Nc2ccc(NC(N)=O)cc21)c1ccc[nH]1 result_type="residual activity" quantitative_result=25
molecule="COc1cc(O)c2c(c1)[C@H]1OC1C[C@H](O)[C@H](O)C(=O)/C=C\\C[C@H](C)OC2=O (stereo not given in full)" result_type="residual activity" quantitative_result=98
molecule="CC1=C(CO)C(=O)O[C@@H]([C@@H](C)[C@H]2CC[C@H]3[C@@H]4C[C@H]5O[C@]56[C@@H](O)C=CC(=O)[C@]6(C)C4CC[C@]23C)C1 (stereo not given in full)" result_type="residual activity" quantitative_result=95
molecule=CCc1cncnc1N1CCN(Cc2nc3cc(C(F)(F)F)ccc3[nH]2)CC1 result_type="residual activity" quantitative_result=93
molecule=O=C(NCCCNc1nc(Nc2cccc(CN3CCOCC3)c2)ncc1C1CC1)C1CCC1 result_type="residual activity" quantitative_result=104
molecule=O=C(Nc1ccccc1-c1cn2c(CN3CCNCC3)csc2n1)c1cnc2ccccc2n1 result_type="residual activity" quantitative_result=95
molecule=CCCCCc1ccc(/C=C/[C@H](O)[C@@H](CO)NC)cc1 result_type="residual activity" quantitative_result=118
molecule=Cc1cccc(-c2nn(C(=S)Nc3ccccc3)cc2-c2ccnc3ccccc23)n1 result_type="residual activity" quantitative_result=91
molecule=O=C(N[C@@H](COc1ccc2[nH]c(=O)[nH]c2c1)c1ccccc1)c1cccn(Cc2ccc(F)c(F)c2)c1=O result_type="residual activity" quantitative_result=103
molecule=CNc1nc(-c2ccc3c(N)n[nH]c3c2)cc(N2C[C@@H](C(=O)NC3CCCCC3)CC[C@H]2C)n1 result_type="residual activity" quantitative_result=112
molecule=O=C(Nc1nc2cc(C(F)(F)F)cc(NC3CC3)n2n1)c1cccnc1 result_type="residual activity" quantitative_result=101
molecule=NC1(c2ccc(-c3nc4ccn5c(=O)[nH]nc5c4cc3-c3ccccc3)cc2)CCC1 result_type="residual activity" quantitative_result=89
molecule=Cc1ccc(-c2ccc3c(ccc4sc5c(c43)NC[C@@H](C)NC5=O)n2)cn1 result_type="residual activity" quantitative_result=55

----------
- target-entity: IKBKE (human)
- method: radiometric filter-binding kinase assay
- experimental-parameters: compound 0.01 µM
result-type: residual activity (%)

compound=O=C(Nc1nc2cc(C(F)(F)F)cc(NC3CC3)n2n1)c1cccnc1 result_type="residual activity" quantitative_result=114
compound=CNc1nc(-c2ccc3c(N)n[nH]c3c2)cc(N2C[C@@H](C(=O)NC3CCCCC3)CC[C@H]2C)n1 result_type="residual activity" quantitative_result=114
compound="COc1cc(O)c2c(c1)[C@H]1OC1C[C@H](O)[C@H](O)C(=O)/C=C\\C[C@H](C)OC2=O (stereo not given in full)" result_type="residual activity" quantitative_result=108
compound=C/C(=C1/C(=O)Nc2ccc(NC(N)=O)cc21)c1ccc[nH]1 result_type="residual activity" quantitative_result=84
compound="CNC(=O)C1[C@H]2O[C@@](C)([C@@H]1N)n1c3ccccc3c3c4c(c5c6ccccc6n2c5c31)C(=O)NC4 (stereo not given in full)" result_type="residual activity" quantitative_result=6

----------
Recorded measurements of residual activity, one per entry
- target-entity: EPHA2 (human)
- method: radiometric filter-binding kinase assay
- experimental-parameters: compound 0.1 µM
result-type: residual activity

smiles_notation=O=C(Nc1nc2cc(C(F)(F)F)cc(NC3CC3)n2n1)c1cccnc1 result=93%
smiles_notation=CCn1c(-c2nonc2N)nc2cncc(CNC3CCNCC3)c21 result=119%
smiles_notation=NC(=O)c1cc2c(-c3cccc(-c4ccccc4)c3)cnc(N)c2s1 result=87%
smiles_notation=CCc1cncnc1N1CCN(Cc2nc3cc(C(F)(F)F)ccc3[nH]2)CC1 result=95%
smiles_notation=Cn1c(=O)c2c(ncn2C)n(C)c1=O result=96%

----------
Recorded measurements of residual activity, one per entry
- target-entity: TTK (human)
- method: radiometric filter-binding kinase assay
- experimental-parameters: compound 10.0 µM
result-type: residual activity (%)

compound=O=C(O)c1cc(N=Nc2ccc(S(=O)(=O)Nc3ccccn3)cc2)ccc1O result_type="residual activity" measurement_unit=% quantitative_result=88
compound=Cc1nc(-c2ccc(OCC(C)C)c(C#N)c2)sc1C(=O)O result_type="residual activity" measurement_unit=% quantitative_result=87
compound=Cc1ccc2c(c1)C(=O)[C@@]1(O)CCN(c3ccccc3)C1=N2 result_type="residual activity" measurement_unit=% quantitative_result=87
compound=NC1(c2ccc(-c3nc4ccn5c(=O)[nH]nc5c4cc3-c3ccccc3)cc2)CCC1 result_type="residual activity" measurement_unit=% quantitative_result=80
compound=CCCCCc1ccc(/C=C/[C@H](O)[C@@H](CO)NC)cc1 result_type="residual activity" measurement_unit=% quantitative_result=86
compound=NS(=O)(=O)OC[C@@H]1C[C@@H](n2ccc3c(N[C@H]4CCc5ccccc54)ncnc32)C[C@@H]1O result_type="residual activity" measurement_unit=% quantitative_result=98
compound=O=c1c(O)c(-c2ccc(O)c(O)c2)oc2cc(O)c(O)c(O)c12 result_type="residual activity" measurement_unit=% quantitative_result=36
compound=COc1cc(C(=O)N2CCOCC2)c(F)cc1Nc1ncc(C(F)(F)F)c(NC2CC2)n1 result_type="residual activity" measurement_unit=% quantitative_result=31
compound="O=C(NOCC(O)CO)c1ccc(F)c(F)c1Nc1ccc(I)cc1Cl (stereo not given)" result_type="residual activity" measurement_unit=% quantitative_result=98
compound=Oc1ccc(/C=C/c2cc(O)cc(O)c2)cc1 result_type="residual activity" measurement_unit=% quantitative_result=83

----------
- target-entity: WNK1 (human) (UniProt Q9H4A3)
- Sequence (Q9H4A3 whole entry, looked up): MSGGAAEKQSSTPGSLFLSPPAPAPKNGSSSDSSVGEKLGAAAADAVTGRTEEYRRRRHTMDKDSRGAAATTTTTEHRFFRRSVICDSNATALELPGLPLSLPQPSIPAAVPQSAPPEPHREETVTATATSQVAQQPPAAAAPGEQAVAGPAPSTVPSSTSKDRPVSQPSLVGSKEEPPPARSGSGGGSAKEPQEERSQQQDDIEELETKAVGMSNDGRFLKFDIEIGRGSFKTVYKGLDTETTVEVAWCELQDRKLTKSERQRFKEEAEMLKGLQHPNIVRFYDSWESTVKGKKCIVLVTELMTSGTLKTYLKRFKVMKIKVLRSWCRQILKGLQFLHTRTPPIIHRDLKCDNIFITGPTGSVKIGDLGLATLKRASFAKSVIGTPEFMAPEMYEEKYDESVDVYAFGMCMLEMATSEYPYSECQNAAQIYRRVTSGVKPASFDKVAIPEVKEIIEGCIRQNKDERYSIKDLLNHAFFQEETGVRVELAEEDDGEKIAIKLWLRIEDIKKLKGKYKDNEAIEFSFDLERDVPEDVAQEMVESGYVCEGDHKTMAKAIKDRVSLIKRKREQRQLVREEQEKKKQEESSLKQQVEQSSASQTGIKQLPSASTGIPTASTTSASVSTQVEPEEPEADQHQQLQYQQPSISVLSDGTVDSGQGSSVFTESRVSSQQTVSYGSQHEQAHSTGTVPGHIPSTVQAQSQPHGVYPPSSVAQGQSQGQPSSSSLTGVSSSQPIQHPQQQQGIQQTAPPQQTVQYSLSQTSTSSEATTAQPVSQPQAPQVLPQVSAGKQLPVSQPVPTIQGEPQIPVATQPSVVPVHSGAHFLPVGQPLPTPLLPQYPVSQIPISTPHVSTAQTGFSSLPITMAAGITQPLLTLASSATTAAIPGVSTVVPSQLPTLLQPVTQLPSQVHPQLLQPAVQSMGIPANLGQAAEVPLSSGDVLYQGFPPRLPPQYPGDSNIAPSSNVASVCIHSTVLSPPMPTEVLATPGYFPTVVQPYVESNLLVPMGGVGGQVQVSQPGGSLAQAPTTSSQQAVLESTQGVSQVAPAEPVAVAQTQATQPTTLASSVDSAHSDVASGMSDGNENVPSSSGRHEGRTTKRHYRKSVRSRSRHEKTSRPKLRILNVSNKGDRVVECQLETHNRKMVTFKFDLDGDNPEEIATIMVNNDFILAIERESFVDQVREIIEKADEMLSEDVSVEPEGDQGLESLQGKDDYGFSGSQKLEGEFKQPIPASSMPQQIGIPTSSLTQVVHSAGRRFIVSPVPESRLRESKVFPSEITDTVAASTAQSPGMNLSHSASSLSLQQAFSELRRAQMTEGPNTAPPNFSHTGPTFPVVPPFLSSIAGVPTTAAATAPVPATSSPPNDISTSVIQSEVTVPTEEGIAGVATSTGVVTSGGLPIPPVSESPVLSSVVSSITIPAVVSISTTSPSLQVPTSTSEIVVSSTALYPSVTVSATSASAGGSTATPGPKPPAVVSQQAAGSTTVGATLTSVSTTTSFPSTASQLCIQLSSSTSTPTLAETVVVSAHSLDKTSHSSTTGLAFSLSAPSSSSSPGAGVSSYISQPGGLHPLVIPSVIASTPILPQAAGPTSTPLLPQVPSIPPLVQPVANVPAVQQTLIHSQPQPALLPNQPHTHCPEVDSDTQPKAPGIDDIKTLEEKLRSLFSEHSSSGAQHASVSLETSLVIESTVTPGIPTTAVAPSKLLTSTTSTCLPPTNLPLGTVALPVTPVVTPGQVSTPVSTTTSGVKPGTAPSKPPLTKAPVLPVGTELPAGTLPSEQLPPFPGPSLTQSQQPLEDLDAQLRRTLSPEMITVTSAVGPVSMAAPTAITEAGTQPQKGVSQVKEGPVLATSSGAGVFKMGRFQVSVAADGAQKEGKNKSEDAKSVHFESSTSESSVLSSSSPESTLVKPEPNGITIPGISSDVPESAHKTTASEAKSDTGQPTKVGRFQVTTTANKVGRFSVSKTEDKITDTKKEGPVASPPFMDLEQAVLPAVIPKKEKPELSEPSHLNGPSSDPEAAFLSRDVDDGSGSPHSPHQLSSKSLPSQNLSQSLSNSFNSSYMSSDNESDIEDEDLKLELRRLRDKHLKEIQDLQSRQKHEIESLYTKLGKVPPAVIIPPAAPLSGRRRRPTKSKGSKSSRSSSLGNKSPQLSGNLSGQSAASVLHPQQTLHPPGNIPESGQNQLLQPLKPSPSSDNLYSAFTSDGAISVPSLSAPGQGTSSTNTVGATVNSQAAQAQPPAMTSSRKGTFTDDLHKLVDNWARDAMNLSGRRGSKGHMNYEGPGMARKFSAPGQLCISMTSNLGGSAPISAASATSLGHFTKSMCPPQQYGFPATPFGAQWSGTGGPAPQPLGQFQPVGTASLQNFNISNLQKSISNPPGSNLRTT
- method: radiometric filter-binding kinase assay
- experimental-parameters: compound 10.0 µM
Recorded measurements of residual activity, one per entry
result-type: residual activity (%)

molecule=COC(=O)/C=C/C(=O)OC result_type="residual activity" quantitative_result=109
molecule=NCC(=O)Nc1ccc(-n2nc(C(F)(F)F)cc2-c2ccc3c(ccc4ccccc43)c2)cc1 result_type="residual activity" quantitative_result=105
molecule=Cc1ccc(-c2ccc3c(ccc4sc5c(c43)NC[C@@H](C)NC5=O)n2)cn1 result_type="residual activity" quantitative_result=119
molecule=CCn1c(-c2nonc2N)nc2cncc(CNC3CCNCC3)c21 result_type="residual activity" quantitative_result=100
molecule=COc1cc(C(=O)N2CCOCC2)c(F)cc1Nc1ncc(C(F)(F)F)c(NC2CC2)n1 result_type="residual activity" quantitative_result=106
molecule=CCNc1nc(Nc2cc(F)c(C(=O)N3CCOCC3)cc2OC)ncc1C(F)(F)F result_type="residual activity" quantitative_result=104
molecule="Nc1cccc2c1CN(C1CCC(=O)NC1=O)C2=O (stereo not given)" result_type="residual activity" quantitative_result=106
molecule=CNc1nc(-c2ccc3c(N)n[nH]c3c2)cc(N2C[C@@H](C(=O)NC3CCCCC3)CC[C@H]2C)n1 result_type="residual activity" quantitative_result=104
molecule="CC1=C(CO)C(=O)O[C@@H]([C@@H](C)[C@H]2CC[C@H]3[C@@H]4C[C@H]5O[C@]56[C@@H](O)C=CC(=O)[C@]6(C)C4CC[C@]23C)C1 (stereo not given in full)" result_type="residual activity" quantitative_result=113
molecule=O=C(Nc1cccnc1)c1cc(-c2ccnc(F)c2)ccc1OCc1ccccc1 result_type="residual activity" quantitative_result=106

----------
- target-entity: NUAK1 (human)
- method: radiometric filter-binding kinase assay
- experimental-parameters: compound 10.0 µM
result-type: residual activity (%)

compound=Cc1ccc(-c2ccc3c(ccc4sc5c(c43)NC[C@@H](C)NC5=O)n2)cn1 target_entity="NUAK1 (human)" result_type="residual activity" quantitative_result=58
compound=Cc1ccc(=O)n(-c2ccccc2)c1 target_entity="NUAK1 (human)" result_type="residual activity" quantitative_result=100
compound=NC(=O)c1c(NC(=O)C2CC2)sc2c1CCCC2 target_entity="NUAK1 (human)" result_type="residual activity" quantitative_result=30
compound=CCNc1nc(Nc2cc(F)c(C(=O)N3CCOCC3)cc2OC)ncc1C(F)(F)F target_entity="NUAK1 (human)" result_type="residual activity" quantitative_result=2
compound=O=c1c(O)c(-c2ccc(O)c(O)c2)oc2cc(O)c(O)c(O)c12 target_entity="NUAK1 (human)" result_type="residual activity" quantitative_result=12
compound=N#Cc1c(O)c2c(-c3ccc(-c4ccccc4O)cc3)csc2[nH]c1=O target_entity="NUAK1 (human)" result_type="residual activity" quantitative_result=61
compound=Cc1nc(-c2ccc(OCC(C)C)c(C#N)c2)sc1C(=O)O target_entity="NUAK1 (human)" result_type="residual activity" quantitative_result=73
compound="O=C(NOCC(O)CO)c1ccc(F)c(F)c1Nc1ccc(I)cc1Cl (stereo unspecified)" target_entity="NUAK1 (human)" result_type="residual activity" quantitative_result=95
compound=CCn1c(-c2nonc2N)nc2cncc(CNC3CCNCC3)c21 target_entity="NUAK1 (human)" result_type="residual activity" quantitative_result=59
compound=CN1C(=O)[C@@H](Cc2c[nH]c3ccccc23)NC1=S target_entity="NUAK1 (human)" result_type="residual activity" quantitative_result=101
compound=NC(=O)c1cc(-c2ccnc(NC3CCCCC3)c2)nc(N2CCNCC2)c1 target_entity="NUAK1 (human)" result_type="residual activity" quantitative_result=32
compound=O=C(NOC[C@H](O)CO)c1ccc(F)c(F)c1Nc1ccc(I)cc1Cl target_entity="NUAK1 (human)" result_type="residual activity" quantitative_result=107
compound=N#Cc1c(C2CCNCC2)cc(-c2c(O)cccc2OCC2CC2)nc1N target_entity="NUAK1 (human)" result_type="residual activity" quantitative_result=24
compound=O=C(O)c1cc(N=Nc2ccc(S(=O)(=O)Nc3ccccn3)cc2)ccc1O target_entity="NUAK1 (human)" result_type="residual activity" quantitative_result=86
compound=NC(=O)c1ccc(-c2ccc(Oc3cncc4sc(-c5nn[nH]n5)cc34)cc2)cc1 target_entity="NUAK1 (human)" result_type="residual activity" quantitative_result=78
compound=COC(=O)/C=C/C(=O)OC target_entity="NUAK1 (human)" result_type="residual activity" quantitative_result=97
compound=NCC(=O)Nc1ccc(-n2nc(C(F)(F)F)cc2-c2ccc3c(ccc4ccccc43)c2)cc1 target_entity="NUAK1 (human)" result_type="residual activity" quantitative_result=61
compound="CC1=C(CO)C(=O)O[C@@H]([C@@H](C)[C@H]2CC[C@H]3[C@@H]4C[C@H]5O[C@]56[C@@H](O)C=CC(=O)[C@]6(C)C4CC[C@]23C)C1 (stereo partly specified)" target_entity="NUAK1 (human)" result_type="residual activity" quantitative_result=110
compound=O=C(Nc1cccnc1)c1cc(-c2ccnc(F)c2)ccc1OCc1ccccc1 target_entity="NUAK1 (human)" result_type="residual activity" quantitative_result=58
compound=CC(C)(C#N)c1ccc(N2C(=O)OCc3cnc4ccc(-c5cnc6ccccc6c5)cc4c32)cc1 target_entity="NUAK1 (human)" result_type="residual activity" quantitative_result=16
compound=O=C(Nc1ccccc1-c1cn2c(CN3CCNCC3)csc2n1)c1cnc2ccccc2n1 target_entity="NUAK1 (human)" result_type="residual activity" quantitative_result=78
